Test: label from the status in PepcDB records
MEASURE_NAME: protein production

MTVQSGELRPNLIALKTIVYREVHRFMRIWPQTLLPPAITMVLYFVIFGNLIGRQIGDMGSFTYMQYIVPGLIMMSVITNSYGNVVSSFFGAKFQHSIEELMVSPVSPHTILIGYTLGGVLRGLMVGFIVTMLSMFFTDLQVHHLGVTIVVVVLTATIFSLLGFINAVFARNFDDISIIPTFVLTPLTYLGGVFYSINLLPPFWQTVSLANPVLHMVNAFRYGILGVSDIKISIALAFMIVATFVLYFGCARLLVSGRGMRQ failed
MSWAAPDDIFFSTSLAAYLDKKLLVLLRDGRKLMGLLRSFDQFANAVLEEAYERVIVGDLYCDIPLGLYIIRGENVVLIGELDVEKEELPAHMVQVPEAEIKRAQKAEKEEMLLKGTMRKRMEFLDLD failed
MSDDLMHEPDAAQAILPPGFLKNPVHLLAFGFGSGAAPRAPGTWGSLAAIPLWYAFSWLPPAAYWLVVLAAFLVGIWLCGKTAADLKVHDHGGIVWDEFVGMWIALGLFPDQLYGVLMAFMLFRLFDVWKPWPINWLDERLPGGLGIMVDDVVAGAMALGCLWAIDVWVMPYIV failed

====

Test: label from the status in PepcDB records
MEASURE_NAME: protein production

WTGEDSAEPNSDSAEWIRDMYAKVTEIWQEVMQRRDDDGTLHAACQVQPSATLDAAQPRVTGVVLFRQLAPRAKLDAFFALEGFP failed
MGVSFKISKVGRKFRPKISTELATPDSPKAIVLSGKPKATDDSNIGDVSGFSKPSLPDISPDHEVSFILSLYPNGYSIGKTSEAMQQISFRDVPKVLHPYDRAAEGLLSAIEAGRLPGDILEDIPCKFVDGVVICEVHDYRKHTSSQVSPVINKLRLKMSLENVVKDIPSMSDNSWTYGDLMVIMVARGL failed
MASYSEDQCSWRGSGLSQAVKNVEQVWLRCAEGSVEWLYPAGALRLTLSPRLPWSAMGPGESSRSPVSVCVKPDPHWGGAQLYLERDGVLELLVGDETSTTPGPAHVRCFSALPGERPALFLQATPHRDISRRIAAFRYELRGDWTAQPAVNTDPVSSEGACRPCNNTEILMAVCTSDFVVRGNIRSVGTDSNLNAAVIKVSATRVYRQKFALFPESGRLTRSGEIRTPLQCGVRPGAGSFLFTGRVHFGEAWLGCAPRYKDFLKAYEQAKQSLMIPCTLVND failed

====

Experiment: label from the status in PepcDB records
MEASURE_NAME: protein production

Check out these entries, answers already filled in.
MQLSHRPAETGDLETVAGFPQDRDELFYCYPKAIWPFSVAQLAAAIAERRGSTVAVHDGQVLGFANFYQWQHGDFCALGNMMVAPAARGLGVARYLIGVMENLAREQYKARLMKISCFNANAAGLLLYTQLGYQPRAIAERHDPDGRRVALIQMDKPLEP not failed
MSVLDLPELALDCILDLLPPSGLCSMARVCSSLRERCVSDHLWEKHLKTKWGKILGPAAHREWQCYISSSTYHLDSPHHQTGNLGFAKIISLIRSLSSVFREDKQRRGYASSLPLDSSMSCYLSLETGRFWFPAQVYNRENGHVGFMLSCYDAELSYDTHTDTFQARYPPHGRRASAIEKGVTWDRIRAAPIDASPHLLHVSDSLKELKPGDHIEIQWRRNKEFPYGK failed
MDMYSMKISEGVERIDGVTANSYLLTLDGKNILIDTGTAGGGKKIIDYFNKNGTKPDYVIVTHHHADHVGGLKEISERFNPEIYVPDLEMKIIRGEEDPPKPRSFFGRMITGMLKFEPVKDVKPVSKASIPGIEEMATPGHTIGSTSYIVEDLHILFSGDAAVESGGELKINKSFSYEINSAERSLEIIKGMKGYLVLPGHGDKVQLLEHHHHHH not failed
MSSSSSKIVVYAALVGNLLIALSKFIAAYFTNSAAMLSEAIHSVVDSLNEILLLYGLKKSQKPANYRHPFGYGRELYFWAFIVALLVFALGAVVSIYQGVSHILQPEEMKYPLVNYLVLGFAILCEGASWWVAVKNFKKMKGSLGYFEAFKRSKDPTTFTVLFEDSAALIGLIIALIGITAAQFLQIPILDGVASVLIGVVLAVSAFLLARETKGLLLGETADPELRKNVLRIAQDDEAVYSANGVLTEQIGAHQVIASLSLEFKDGLISDEIENCVNRIEAQIKQIHPEIVALFIKPQSNEVWLERMKGRLNQQNGEIVAAKVK failed
VEGRTVTYGQQNGTARTGYLAAPADVDSVRSARGGDALPGIVVIHEWWGLNDNVRAATRRLAGEGYRALAVDLYGGAVAETPDSAQALMGQAMREPSRLVENVRDGRAYLSSEADAPRTALLGWCFGGGMTYRTLAEEASAFDAAVAYYGTPDPLAGEALQALETPILAHFGTQDQAVPIDAARKFRDRMEDAGTSLAYHEYDAGHAFANPSGESYEPAAAEQAWTRTTDFLQTHL failed

# batch size: 5; output protein production per entry
1. MVNYKEKLDEAIHLTQQKGFEQTRAEWLMLDVFQWTRTDFVVHMHDDMPKAMIMKFDLALQRMLLGEPIQYIVGFASFYGRTFDVNSNCLIPRPETEEVMLHFLQQLEDDATIVDIGTGSGVLAITLKCEKPDLNVIATDISLEAMNMARNNAEKHQSQIQFLTGDALKPLINEGIKLNGLISNPPYIDEKDMVTMSPTVTRFEPHQALFADNHGYAIYESIIEDLPHVMEKGSPVVFEIGYNQGEALKSIILNKFPDKKIDIIKDINGHDRIVSFKW
2. MANVKLLLPYILKWEGGFVHDPADAGGATNKGVTIATWKRVGYDKDGDGDIDVEDLKLLTDDDVLNRVLKPFYWDRWKADLIESQKVANILVDWVWGSGKYGIVIPQRILGVQADGIVGNKTLQAVNSADPDELFESIFDARREFLEDITARSIKKYEDSIGRKATERELLRHTNKRFLRGWLNRLEDIRKL
3. MAVEEFNQNLNEIMKFKECNITVDTCVVIDGRITELISDGTIEKCTIIVPEAVISELEAQANKGREIGYFGIEELKKLVKVAKENEMVLEYYGERPSTGEVSLAKAGEIDAMIRKVAKDTNSILFTSDRIQYNLAIAQNINAHFLKVHEEKVDLKLV
4. MQFKIIKAQELEKQQREKIAELCFAAFEEDPWSQYAFMQNAFHIIGLLGEDIVSHALWTDRVFTLNNHVTLKTAYIEYVTTDSTMRGRGLASKLLMYLINILTTKKYELAALQPEVEAFYRKLGWVSWGGNLYIKHNISIYKTDGIEVMLYPLSGGLKDQIVCSLKNDKICTDWREGELW
5. MVNPTIPDDLLAKIAKTVAHKCWWDLQPLLRSGRRGRDVVYRPDVLKGANIFSMCEDPDDYQVDGSHHPSGPQEEGRHRAFFKRCVDAGNPTTMYFEALCVLTHERDIKGAINLLRPHVPSQAHATLACAILYIIDGNDYMGAIFLNLFGRNHYPLGTEETRDLCEEFLEDLKKFRPPYNNTYGSTFSYPNSHGIKTPDCALLCYIVSGPFKNVCNCCYLWWCARRVSQML

Response:
failed
not failed
failed
failed
failed

# batch size: 2; output protein production per entry
1. MRVLVIGATGHVGTYLVPRLVEAGHDVVTISRGAARPYTADRAWASVDQRQMDRVEMERKGDFGPAMRALNADIVIDMICFTLESAEQLVTALSGYVGHFLHTGTIWTHGYPVAVPTREEAPKSPFGDYGIQKAAIETYLLQQARLRGFPATIIHPGHIVGRGWAPLNPAGNFNLQVFSTLARGEALALPNFGLETVHHVHADDVAAMFMDAIANRNASLGESFHAVSEQALTLRGYAESMSRWFGRDPKLTFAPFDAWARGQAAEDAEATWEHIARSPNCSIAKARRLLGYGPRYTSLQAVQESVGWLLGQGRIKS
2. MKYIEPHFISFTQHTLKSQLIPKSFHGMKILQFSDLHLGYYFSLQHLSQVVSKINAVNPDIVLFTGDLIDNYQTYTDTPFVASILKNIQAPFGKFAIYGNHDHGGYGTEYYEHIMRESGFELLLNSKKRIRLMDNSEISIFGLDDILLGKPKIEKTLQHARQNTYNIVLVHEPDIAPQISKYPINLQLSGHSHGGQVQIPFLGAIITPSLAKDYIEGFYTMQDLTLYVNRGLGRTRVPFRFMSKPEITIFTLQHSLEHHHHHH

Response:
failed
failed

Prompt: For the sequence MSQEAFENKLYANLEAVIDPELGVDIVNLGLVYDVTADENNNAVITMTMTSIGCPMAGQIVSDVKKVLSTNVPEVNEIEVNVVWNPPWSKERMSRMAKIALGIRD , give its measured protein production value.
Response: not failed

====

Assay: label from the status in PepcDB records
MEASURE_NAME: protein production

Check out these entries, answers already filled in.
MGHHHHHHSHMPDHGDWTYEEQFKQLYELDGDPKRKEFLDDLFSFMQKRGTPVNRIPIMAKQVLDLFMLYVLVTEKGGLVEVINKKLWREITKGLNLPTSITSAAFTLRTQYMKYLYPYECEKRGLSNPNELQAAIDSNRREGRR not failed
MLAILIFSFLLVILVAGNNSSAVSGTIIGSKMMNKSLALAITAVGYIAGYLLEGRFLQHAVNELLPFEPEYVLYAIIASFVIFTIAFFVKVPISLTMALVGSAIGLSLKLGYSSDARFLTEVIIAWIAAPLISVGSSYVFNDRLSKMRHGDIWRYASAIKVMPIVTAIFTAFTLGANTIGFLGDISGTAVFNEILISIGSVIGTFFFSSGIMKSVSQNMYMMKYTNAFSSQLISALVVEVSTLFSIPMSNTQTLTSAVLGAGLSYRAKAIYLKPFLYIVIMWILSPLIGMAFTYALA failed
MVITLSRLYVHPVKSMRGLQLSHAQVSSSGLAFDRVFMITEPDGTFITARQYPKMVMFTPALMSDGLYLTAPDGESASIRFNDFLANAEPTEVWGNHFTALIAPAAINNWLSGYFQREVQLRWLGPELTRRVKPMPEIPLSFADGFPYLLINEASFKELQQRCPGSIKLEQFRPNLLVTGASAFAEDSWQVIRVGDITFDLVKPCSRCVLTTVSVERGRKHPTGEPLQTLQTFRTAENGDIDFGQNMVARNSGIIRVGDEVEVLSTKPPRPYGAGAVVESLAAPEDKSKAVAIEYNGIRFNGNNQQVLLEQLEQQNIRIPYSCRAGICGSCRITLINGEVAPLKQSAIGNDGTILCCSCIPKGDITLSGK failed
MHSQTLRLASYNIQKCVGLDLRRQPRRILQVLDAMGARIAVLQEADKRLPPRPAALPHFVLEEAGWQVVDLGGAGSLGWHGNAVIWKGAGITQLASAHHDLPGFEPRGAVRVEFDTPIGPLRVLGLHLGLLPASRRDQIVHLAHDLERLPPMPTVWAGDFNEWSRQPVLDHLAPMLRFLPARPSFPAPRPLGALDRIAHSPELSAVAHGVFAERPAPIASDHLPVWADLTRPV failed
MVPPKLKQALELFKSLPKELRSQVLLEYAAKVPPPPPGVELERVHECQTPFFVHADVEGGKVRLYFHVPDEAPTVKAFAGLLREGLEGESPEAVLEVPPGFYRGYGLEEFFTPLRLRGLEAALLRLQAQVRKALTS not failed

# batch size: 2; output protein production per entry
1. MGNFTFEEMNLMCIYNTGSRTGLIDSLREMRGELAPEETELRELTDSALGNLQAMSDAEFAELELYPDFDQ
2. QLSSVTDSKKKKTILDQIFVWEQNLEQFQMDLFRFRCYLASLQGGELPNPKRLLAFASRPTKVAMGRLGIFSVSSFHALVAARTGETGVRRRTQAM

Response:
1. failed
2. failed
